# testName: Photochromic properties of cast polymer (2 mm thick) under xenon lamp irradiation for 120 seconds
# Type: physicochemical
# measurementContext: single chromene compound 0.04% by weight in polymer, 20° C.; Table 5
// reported Maximum absorption wavelength λmax for each item listed
Kindly answer with a numeric value in nm, unit omitted.

Examples with their reported Maximum absorption wavelength λmax follow.
{"compound": "CC(C)(C)c1cc2ccccc2c2c1C=CC1(O2)C2CCCC1CCC2 (stereo not drawn) [Compound 2]", "metricName": "Maximum absorption wavelength λmax", "units": "nm", "result": 443}
{"compound": "CCOC(=O)c1c2c(c3ccccc3c1C)OC1(C=C2)C2CCCC1CCC2 (stereo not drawn) [f, reference compound]", "metricName": "Maximum absorption wavelength λmax", "units": "nm", "result": 446}
{"compound": "COc1ccc(C2(c3ccc(OC(F)(F)F)cc3)C=Cc3c(C)cc4ccccc4c3O2)cc1 (stereo not drawn) [Compound 30]", "metricName": "Maximum absorption wavelength λmax", "units": "nm", "result": 490}
{"compound": "COc1ccc(C2(c3ccc(OC)c(F)c3)C=Cc3c(C)cc4ccccc4c3O2)cc1F [Compound 27]", "metricName": "Maximum absorption wavelength λmax", "units": "nm", "result": 496}
{"compound": "CCCc1cc2ccccc2c2c1C=CC(c1ccc(OC)cc1)(c1ccc(OC)cc1)O2 [Compound 35]", "metricName": "Maximum absorption wavelength λmax", "units": "nm", "result": 498}
{"compound": "COc1ccc2c3c(c(C(C)Cc4ccccc4)cc2c1)C=CC(c1ccccc1)(c1cccn1C)O3 (stereo not drawn) [Compound 8]", "metricName": "Maximum absorption wavelength λmax", "units": "nm", "result": 490}

Prompt: Suppose we examine the compound CCC(C)c1cc2ccccc2c2c1C=CC(c1ccc(OC)cc1)(c1ccc(OC)c(C#N)c1)O2 (stereo not drawn) [Compound 4] ; what Maximum absorption wavelength λmax value has been reported?
Completion: 470

Prompt: Suppose we examine the compound CC(=O)Oc1ccc2c3c(c(C(C)C)cc2c1)C=CC(c1ccc(C)cc1)(c1ccc(C)cc1)O3 [Compound 10] ; what Maximum absorption wavelength λmax value has been reported?
Completion: 465

Prompt: Suppose we examine the compound CC(C)c1cc2cc(O)ccc2c2c1C=CC(c1cccs1)(c1cccs1)O2 [Compound 9] ; what Maximum absorption wavelength λmax value has been reported?
Completion: 500

Just for reference, patent US6197225A is where these values come from.
